Overview of recorded inhibition at 20 µM for various compounds
# Tgt: Rac-1 (Homo sapiens (Human))
# Test: Rac inhibition assay (labeled GTP)
# Assay type: binding
# Conditions: read-out: Rac-1 % Inh.

{"columns": ["Compound", "inhibition at 20 µM"],
 "data": [
  ["Cc1sc2c(O)nc(-c3nccn3C)nc2c1-c1cccc(C(F)(F)F)c1 [drawing 3917]", "25 to 50%"],
  ["O=C(NCCc1ccnc(O)n1)c1csc2nc(-c3ccccn3)nc(N3CCOCC3)c12 [drawing 3770]", "51 to 75%"],
  ["COc1nc(-c2cn(C)cn2)nc2sc(-c3ccncc3)c(-c3ccccc3)c12 [drawing 3849]", "25 to 50%"],
  ["COCCNc1nc(-c2cn(C)cn2)nc2sc(-c3ccncc3)c(-c3ccccc3)c12 [drawing 3848]", "76 to 100%"],
  ["Nc1nc(-c2ccccn2)nc2c(Br)csc12 [drawing 3764]", "51 to 75%"],
  ["Oc1nc(-c2ccccn2)nc2c(-c3ccc(OC4CCCCC4)cc3)csc12 [drawing 3759]", "51 to 75%"],
  ["COc1ccc(-c2c(-c3ccccc3)sc3c(O)nc(-c4nccn4C)nc23)cn1 [drawing 3911]", "1 to 25%"],
  ["Cn1cnc(-c2nc(O)c3sc(-c4ccncc4)c(-c4ccccc4)c3n2)c1 [drawing 3867]", "1 to 25%"],
  ["Oc1nc(-c2ccccn2)nc2c(-c3cc(C(F)(F)F)ccc3F)csc12 [drawing 3783]", "25 to 50%"],
  ["O=C(c1csc2c(O)nc(-c3ccccn3)nc12)N1CCNC(c2ccccc2F)C1 (stereo not drawn) [drawing 3665]", "76 to 100%"],
  ["Cn1ccnc1-c1nc(NCCOC2CC2)c2c(-c3ccccc3)c(-c3ccccc3)sc2n1 [drawing 3894]", "25 to 50%"],
  ["COc1ccnc(-c2nc(O)c3ccsc3n2)c1 [drawing 3627]", "76 to 100%"],
  ["Cn1ccnc1-c1nc(O)c2scc(-c3ccccc3)c2n1 [drawing 3932]", "51 to 75%"],
  ["Oc1nc(-c2ccccn2)nc2c3c(sc12)CNC3 [drawing 3796]", "76 to 100%"],
  ["COCCCNc1nc(-c2nccn2C)nc2sc(-c3ccccc3)c(-c3ccccc3)c12 [drawing 3888]", "25 to 50%"],
  ["Oc1nc(-c2ccccn2)nc2c(C3CCCC3)csc12 [drawing 3814]", "76 to 100%"],
  ["COc1nc(-c2ccccn2)nc2c1c(-c1ccccc1)nn2-c1ccccn1 [drawing 3858]", "76 to 100%"],
  ["Oc1nc(-c2ccccn2)nc2c1c(-c1ccccc1)nn2-c1ccccn1 [drawing 3857]", "51 to 75%"]
]}

meta.source: patent US10940139B2
